assay: Cell viability assay HEK293 (CellTiter-Glo); type: cell-based; conditions: human, HEK293 cells, read-out: HEK293 (CC50 code)
Collected CC50 at 3 days values appear next to each entry.

Below, 9 molecules whose answers are already recorded.
# molecule, CC50 at 3 days
records = [
    ("O=C(NS(=O)(=O)c1ccc(NCC2CCOCC2)c([N+](=O)[O-])c1)c1ccc(N2CCC(CN3Cc4ccccc4C4(CCC4)C3)CC2)cc1Oc1cnc2[nH]ccc2c1", "> 25 µM"),
    ("O=C(NS(=O)(=O)c1ccc(NCC2CCOCC2)c([N+](=O)[O-])c1)c1ccc(N2CCC(CN3CCCCC3c3ccc(Cl)cc3)CC2)cc1Oc1cncc(CO)c1 (stereo not shown)", "10 to 25 µM"),
    ("CC(C)C(=O)N1Cc2cc(Cl)ccc2C[C@H]1CN1CCN(c2ccc(C(=O)NS(=O)(=O)c3ccc(NCC4CCOCC4)c([N+](=O)[O-])c3)c(Oc3cnc4[nH]ccc4c3)c2)CC1", "10 to 25 µM"),
    ("CN1C(=O)CC[C@H](CN2CCN(c3ccc(C(=O)NS(=O)(=O)c4ccc(NCC5CCOCC5)c([N+](=O)[O-])c4)c(Oc4cnc5[nH]ccc5c4)c3)CC2)[C@H]1c1ccc(Cl)cc1", "> 25 µM"),
    ("O=C(NS(=O)(=O)c1ccc(NCC2CCOCC2)c([N+](=O)[O-])c1)c1ccc(N2CCC(CN3C(=O)C4(CCNCC4)C3c3ccc(Cl)cc3)CC2)cc1Oc1cnc2[nH]ccc2c1 (stereo not shown)", "> 25 µM"),
    ("O=C(NS(=O)(=O)c1ccc(NCC2CCOCC2)c([N+](=O)[O-])c1)c1ccc(N2CCC(CN3CCCCCC3c3ccc(Cl)cc3)CC2)cc1Oc1cnc2[nH]ccc2c1 (stereo not shown)", "> 25 µM"),
    ("O=C(NS(=O)(=O)c1ccc(NCC2CCOCC2)c([N+](=O)[O-])c1)c1ccc(N2CCN(C[C@H]3Cc4ccccc4CN3C(=O)C3CC3)CC2)cc1Oc1cnc2[nH]ccc2c1", "> 25 µM"),
    ("O=C(NS(=O)(=O)c1ccc(NCC2CCOCC2)c([N+](=O)[O-])c1)c1ccc(N2CCN(C[C@H]3Cc4ccccc4CN3C(=O)c3ccsc3)CC2)cc1Oc1cnc2[nH]ccc2c1", "> 25 µM"),
    ("O=C(NS(=O)(=O)c1ccc(NCCCN2CCOCC2)c([N+](=O)[O-])c1)c1ccc(N2CCC(CN3CCCCC3c3ccc(Cl)cc3)CC2)cc1Oc1cnc2[nH]ccc2c1 (stereo not shown)", "10 to 25 µM"),
]

The record that follows has no CC50 at 3 days shown yet.
Please give the measured CC50 at 3 days for this molecule: O=C(NS(=O)(=O)c1ccc(NCC2CCOCC2)c([N+](=O)[O-])c1)c1ccc(N2CCN(C[C@H]3[C@H](c4ccc(Cl)cc4)[C@@H]4C=C[C@H]3C4)CC2)cc1Oc1cnc2[nH]ccc2c1
10 to 25 µM

* * *

Reported IC50 for target or system BCL-2 (Homo sapiens, UniProt P10415), by entry.

Checklist item: IC50 tested on BCL-2 (Homo sapiens, UniProt P10415), entry O=C(NS(=O)(=O)c1ccc(NCC2CCOCC2)c([N+](=O)[O-])c1)c1ccc(N2CCC(CN3CC4(CCCC4)C3c3ccccc3)CC2)cc1Oc1cnc2[nH]ccc2c1 (centres unmarked) , value?
> 50 nM

Checklist item: IC50 tested on BCL-2 (Homo sapiens, UniProt P10415), entry C[C@]1(O)CC[C@H](CN2CCN(c3ccc(C(=O)NS(=O)(=O)c4ccc(NCC5CCOCC5)c([N+](=O)[O-])c4)c(Oc4cnc5[nH]ccc5c4)c3)CC2)[C@@H](c2ccc(Cl)cc2)C1 , value?
10 to 50 nM

Checklist item: IC50 tested on BCL-2 (Homo sapiens, UniProt P10415), entry O=C(NS(=O)(=O)c1ccc(NCC2CCOCC2)c([N+](=O)[O-])c1)c1ccc(N2CCC(CN3Cc4ccccc4C4(CCC4)C3)CC2)cc1Oc1cnc2[nH]ccc2c1 , value?
> 50 nM

Checklist item: IC50 tested on BCL-2 (Homo sapiens, UniProt P10415), entry O=C(NS(=O)(=O)c1ccc(NCC2CCOCC2)c([N+](=O)[O-])c1)c1ccc(N2CCN(C[C@@H]3CC(F)CN3c3ccc(Cl)cc3)CC2)cc1Oc1cnc2[nH]ccc2c1 (some centres unmarked) , value?
> 50 nM

Checklist item: IC50 tested on BCL-2 (Homo sapiens, UniProt P10415), entry CC(C)C(=O)N1Cc2ccc(F)cc2C[C@H]1CN1CCN(c2ccc(C(=O)NS(=O)(=O)c3ccc(NCC4CCOCC4)c([N+](=O)[O-])c3)c(Oc3cnc4[nH]ccc4c3)c2)CC1 , value?
> 50 nM

Checklist item: IC50 tested on BCL-2 (Homo sapiens, UniProt P10415), entry O=C(NS(=O)(=O)c1ccc(NCC2CCOCC2)c([N+](=O)[O-])c1)c1ccc(N2CCC(CN3CCCCC3c3ccc(Cl)cc3)CC2)cc1Oc1cccc(F)c1 (centres unmarked) , value?
> 50 nM

* * *

pIC50: −log10 of the molar value.
Reported pIC50 for target or system BCL-XL (Homo sapiens, UniProt Q07817), by entry.

Below, 2 compounds whose answers are already recorded.
# compound, pIC50
measured = [
    ("O=C(NS(=O)(=O)c1ccc(NCC2CCOCC2)c([N+](=O)[O-])c1)c1ccc(N2CCN(CC(O)(c3ccccc3)c3ccc(F)c(F)c3)CC2)cc1Oc1cnc2[nH]ccc2c1 (centres unmarked) [Compound 11]", "< 5.40"),
    ("C[C@]1(O)CC[C@H](CN2CCN(c3ccc(C(=O)NS(=O)(=O)c4ccc(NCC5CCOCC5)c([N+](=O)[O-])c4)c(Oc4cnc5[nH]ccc5c4)c3)CC2)[C@@H](c2ccc(Cl)cc2)C1 [Compound 74]", "5.40 to 5.70"),
]

Checklist item: pIC50 tested on BCL-XL (Homo sapiens, UniProt Q07817), entry CC1=CC[C@@H](CN2CCN(c3ccc(C(=O)NS(=O)(=O)c4ccc(NCC5CCOCC5)c([N+](=O)[O-])c4)c(Oc4cnc5[nH]ccc5c4)c3)CC2)[C@@H](c2ccc(Cl)cc2)C1 [Compound 71] , value?
< 5.40

Checklist item: pIC50 tested on BCL-XL (Homo sapiens, UniProt Q07817), entry O=C(NS(=O)(=O)c1ccc(NCC2CCOCC2)c([N+](=O)[O-])c1)c1ccc(N2CCN(C[C@H]3Cc4ccccc4CN3C(=O)c3cccs3)CC2)cc1Oc1cnc2[nH]ccc2c1 [Compound 34] , value?
5.40 to 5.70

Checklist item: pIC50 tested on BCL-XL (Homo sapiens, UniProt Q07817), entry O=C(NS(=O)(=O)c1ccc(NCC2CCOCC2)c([N+](=O)[O-])c1)c1ccc(N2CCC(CN3Cc4ccccc4CC3c3ccccc3)CC2)cc1Oc1cnc2[nH]ccc2c1 (centres unmarked) [Compound 41] , value?
< 5.40

Checklist item: pIC50 tested on BCL-XL (Homo sapiens, UniProt Q07817), entry O=C(NS(=O)(=O)c1ccc(NCC2CCOCC2)c([N+](=O)[O-])c1)c1ccc(N2CCC(CN3C(=O)C4(CCCC4)C3c3ccc(Cl)cc3)CC2)cc1Oc1cnc2[nH]ccc2c1 (centres unmarked) [Compound 1] , value?
< 5.40

Checklist item: pIC50 tested on BCL-XL (Homo sapiens, UniProt Q07817), entry Cc1cc(Cl)ccc1C1N(CC2CCN(c3ccc(C(=O)NS(=O)(=O)c4ccc(NCC5CCOCC5)c([N+](=O)[O-])c4)c(Oc4cnc5[nH]ccc5c4)c3)CC2)C(=O)C12CCCC2 (centres unmarked) [Compound 3] , value?
5.40 to 5.70

Checklist item: pIC50 tested on BCL-XL (Homo sapiens, UniProt Q07817), entry O=C(NS(=O)(=O)c1ccc(NCC2CCOCC2)c([N+](=O)[O-])c1)c1ccc(N2CCC(CN3C(=O)C4(CCCC4)C3c3cncc(Cl)c3)CC2)cc1Oc1cnc2[nH]ccc2c1 (centres unmarked) [Compound 9] , value?
5.40 to 5.70

Checklist item: pIC50 tested on BCL-XL (Homo sapiens, UniProt Q07817), entry O=C(NS(=O)(=O)c1ccc(NCC2CCOCC2)c([N+](=O)[O-])c1)c1ccc(N2CCC(CN3CC4(CCCC4)C3c3ccccc3)CC2)cc1Oc1cnc2[nH]ccc2c1 (centres unmarked) [Compound 27] , value?
5.40 to 5.70

Checklist item: pIC50 tested on BCL-XL (Homo sapiens, UniProt Q07817), entry CC(C)C(=O)N1Cc2cc(F)ccc2C[C@H]1CN1CCN(c2ccc(C(=O)NS(=O)(=O)c3ccc(NCC4CCOCC4)c([N+](=O)[O-])c3)c(Oc3cnc4[nH]ccc4c3)c2)CC1 [Compound 48] , value?
< 5.40

Checklist item: pIC50 tested on BCL-XL (Homo sapiens, UniProt Q07817), entry O=C(NS(=O)(=O)c1ccc(NC2CCS(=O)(=O)CC2)c([N+](=O)[O-])c1)c1ccc(N2CCC(CN3CCCCC3c3ccc(Cl)cc3)CC2)cc1Oc1cnc2[nH]ccc2c1 (centres unmarked) [Compound 79] , value?
< 5.40

Checklist item: pIC50 tested on BCL-XL (Homo sapiens, UniProt Q07817), entry O=C(NS(=O)(=O)c1ccc(NCC2CCOCC2)c([N+](=O)[O-])c1)c1ccc(N2CCC(CN3C(=O)C4(CCCC4)C3c3ccccc3)CC2)cc1Oc1cnc2[nH]ccc2c1 (centres unmarked) [Compound 2] , value?
< 5.40

Checklist item: pIC50 tested on BCL-XL (Homo sapiens, UniProt Q07817), entry O=C1CC[C@]2(c3ccc(Cl)cc3)C[C@@]2(CN2CCN(c3ccc(C(=O)NS(=O)(=O)c4ccc(NCC5CCOCC5)c([N+](=O)[O-])c4)c(Oc4cnc5[nH]ccc5c4)c3)CC2)C1 [Compound 77] , value?
< 5.40

Checklist item: pIC50 tested on BCL-XL (Homo sapiens, UniProt Q07817), entry CC1=CC[C@@H](CN2CCN(c3ccc(C(=O)NS(=O)(=O)c4ccc(NCC5CCOCC5)c([N+](=O)[O-])c4)c(Oc4cnc5[nH]ccc5c4)c3)CC2)[C@H](c2ccc(Cl)cc2)C1 [Compound 54] , value?
5.40 to 5.70

Checklist item: pIC50 tested on BCL-XL (Homo sapiens, UniProt Q07817), entry O=C(NS(=O)(=O)c1ccc(NCC2CCOCC2)c([N+](=O)[O-])c1)c1ccc(N2CCN(CC3Cc4cc(Cl)ccc4CN3C(=O)C3CC3)CC2)cc1Oc1cnc2[nH]ccc2c1 (centres unmarked) [Compound 22] , value?
< 5.40

Checklist item: pIC50 tested on BCL-XL (Homo sapiens, UniProt Q07817), entry CC(C)C(=O)N1Cc2cc(Cl)ccc2C[C@H]1CN1CCN(c2ccc(C(=O)NS(=O)(=O)c3ccc(NCC4CCOCC4)c([N+](=O)[O-])c3)c(Oc3cnc4[nH]ccc4c3)c2)CC1 [Compound 57] , value?
< 5.40

Checklist item: pIC50 tested on BCL-XL (Homo sapiens, UniProt Q07817), entry O=C(NS(=O)(=O)c1ccc(NCC2CCOCC2)c([N+](=O)[O-])c1)c1ccc(N2CCN(CC3Cc4ccc(Cl)cc4CN3C(=O)C3CC3)CC2)cc1Oc1cnc2[nH]ccc2c1 (centres unmarked) [Compound 20] , value?
< 5.40

Checklist item: pIC50 tested on BCL-XL (Homo sapiens, UniProt Q07817), entry CC1=CC[C@@H]2C[C@H]1[C@H](c1ccc(Cl)cc1)N(CC1CCN(c3ccc(C(=O)NS(=O)(=O)c4ccc(NCC5CCOCC5)c([N+](=O)[O-])c4)c(Oc4cnc5[nH]ccc5c4)c3)CC1)C2 [Compound 55] , value?
< 5.40

Checklist item: pIC50 tested on BCL-XL (Homo sapiens, UniProt Q07817), entry O=C1CC[C@H](CN2CCN(c3ccc(C(=O)NS(=O)(=O)c4ccc(NCC5CCOCC5)c([N+](=O)[O-])c4)c(Oc4cnc5[nH]ccc5c4)c3)CC2)[C@@H](c2ccc(Cl)cc2)N1 [Compound 70] , value?
< 5.40

Checklist item: pIC50 tested on BCL-XL (Homo sapiens, UniProt Q07817), entry O=C(NS(=O)(=O)c1ccc(NCC2CCOCC2)c([N+](=O)[O-])c1)c1ccc(N2CCN(CC3Cc4ccccc4CN3C(=O)c3cccs3)CC2)cc1Oc1cnc2[nH]ccc2c1 (centres unmarked) [Compound 6] , value?
≥ 5.70
